Just for reference, patent US8580823B2 is where these values come from.

- assay_target: trypsin-activated recombinant human renin (Homo sapiens, UniProt P00797)
- Sequence (P00797 67-406): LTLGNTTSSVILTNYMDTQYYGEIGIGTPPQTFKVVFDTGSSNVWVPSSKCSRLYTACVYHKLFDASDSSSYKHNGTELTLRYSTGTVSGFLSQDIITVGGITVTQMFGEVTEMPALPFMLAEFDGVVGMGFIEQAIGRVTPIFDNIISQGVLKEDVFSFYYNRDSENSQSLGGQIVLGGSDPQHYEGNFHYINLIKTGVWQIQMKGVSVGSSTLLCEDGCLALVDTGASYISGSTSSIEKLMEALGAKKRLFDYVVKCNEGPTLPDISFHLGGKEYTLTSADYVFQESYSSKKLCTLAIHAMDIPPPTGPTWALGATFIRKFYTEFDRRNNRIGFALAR
- test_name: In vitro renin inhibition, fluorescence of internally quenched peptide substrate
- stated_conditions: fluorogenic peptide substrate, pH 7.0, rt
pIC50: −log10 of the molar value.
assay_readout: pIC50

>  <line_notation>
CCN[C@H](CNC(=O)N1CCC[C@@H]([C@@H](OCCNC(=O)OC)c2cc(Cl)ccc2C)C1)C[C@H]1CCCOC1

>  <pIC50>
> 8.00

$$$$
>  <line_notation>
CN[C@H](CNC(=O)N1CCC[C@@H]([C@@H](OCCNC(=O)OC)c2cc(F)cc(F)c2)C1)C[C@H]1CCCOC1

>  <pIC50>
> 8.00

$$$$
>  <line_notation>
CN[C@H](CNC(=O)N1CCC[C@@H]([C@@H](OCCNC(=O)OC)c2cc(F)cc(Cl)c2)C1)C[C@H]1CCCOC1

>  <pIC50>
> 9.00

$$$$

Query string: State the recorded pIC50 for this entry: CN[C@H](CNC(=O)N1CCC[C@@H]([C@H](OCCNC(=O)OC)c2cc(Cl)ccc2C)C1)C[C@H]1CCCOC1
Result string: > 8.00
